Cited source for all entries: patent US20180230200A1

Biological target: gH/gL/UL128/UL130/UL131A pentamer complex (PC) of HCMV strain TR virus (human cytomegalovirus strain TR)
Experiment: cell-based or functional assay
Observation type: IC50, neutralization of TR infection of MRC-5

[ask] Please supply the value of reported IC50, neutralization of TR infection of MRC-5 for the item 12E2 (antibody, V domains shown, also called NAb 12E2) VH: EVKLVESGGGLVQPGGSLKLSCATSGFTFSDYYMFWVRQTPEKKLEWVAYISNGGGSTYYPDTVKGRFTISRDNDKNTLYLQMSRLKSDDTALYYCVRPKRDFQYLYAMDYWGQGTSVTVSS VL: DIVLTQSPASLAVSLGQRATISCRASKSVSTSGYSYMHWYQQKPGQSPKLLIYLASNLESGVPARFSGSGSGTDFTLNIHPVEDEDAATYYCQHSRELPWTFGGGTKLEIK
[reply] > 25000 ng/mL
